B1: HDV Ribozyme (parent)
chain: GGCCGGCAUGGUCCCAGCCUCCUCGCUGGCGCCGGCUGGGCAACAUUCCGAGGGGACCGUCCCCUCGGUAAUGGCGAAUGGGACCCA

variants of: B1; experiment: self-cleavage, relative activity (ratio to wild type); higher = more cleavage; co-transcriptional
Exercise: for every item that follows, state its recorded self-cleavage.
Numbers only.

variant notation	self-cleavage
C58G A70G	1.03

For every item below, please supply its self-cleavage.
1. A42C A83C
2. A56G G68C
3. U12A C36U
4. G50U C84A
5. U12G A56C
6. C3U G31U
7. C13A C86U

result:
[0.101, 1.01, 0.0678, 0.974, 0.831, 0.173, 0.242]

For every item below, please supply its self-cleavage.
1. G25C U47C
2. G2U G54U
3. G68C C85A
4. G38U A43G
5. A42G C66A
6. G73U A83G
7. G2C A51C

result:
1. 0
2. 0.0589
3. 1.17
4. 0.208
5. 0.702
6. 0.219
7. 0.0308

For every item below, please supply its self-cleavage.
1. G10U C32U
2. C15U G31C
3. C18G C62G
4. C15G A78U
5. U72G G82U

result:
0.546
0.208
0
0.375
0

For every item below, please supply its self-cleavage.
1. A42U G54U
2. U60G

result:
0.465
0.978

For every item below, please supply its self-cleavage.
1. C22A C36A
2. G35C A78C

result:
1: 0.0536; 2: 0.0519

For every item below, please supply its self-cleavage.
1. G5C C15G
2. C3A C18G
3. C13A C61A
4. C41U G52C
5. G55C A70G
6. C63G A83U
7. G17A C64U

result:
[0.249, 0, 0.163, 0.819, 0.848, 0.271, 0.722]

For every item below, please supply its self-cleavage.
1. G53A A78C
2. A71C U72G

result:
1: 0.104; 2: 0.465

For every item below, please supply its self-cleavage.
1. U27A U47C
2. C13A G59C
3. G17C U46G
4. G76C C85G

result:
[0.391, 0.237, 0.0923, 1.23]
